Target: Phosphatidylinositol 4,5-bisphosphate 3-kinase catalytic subunit delta isoform (Homo sapiens)
Sequence (O00329 whole entry): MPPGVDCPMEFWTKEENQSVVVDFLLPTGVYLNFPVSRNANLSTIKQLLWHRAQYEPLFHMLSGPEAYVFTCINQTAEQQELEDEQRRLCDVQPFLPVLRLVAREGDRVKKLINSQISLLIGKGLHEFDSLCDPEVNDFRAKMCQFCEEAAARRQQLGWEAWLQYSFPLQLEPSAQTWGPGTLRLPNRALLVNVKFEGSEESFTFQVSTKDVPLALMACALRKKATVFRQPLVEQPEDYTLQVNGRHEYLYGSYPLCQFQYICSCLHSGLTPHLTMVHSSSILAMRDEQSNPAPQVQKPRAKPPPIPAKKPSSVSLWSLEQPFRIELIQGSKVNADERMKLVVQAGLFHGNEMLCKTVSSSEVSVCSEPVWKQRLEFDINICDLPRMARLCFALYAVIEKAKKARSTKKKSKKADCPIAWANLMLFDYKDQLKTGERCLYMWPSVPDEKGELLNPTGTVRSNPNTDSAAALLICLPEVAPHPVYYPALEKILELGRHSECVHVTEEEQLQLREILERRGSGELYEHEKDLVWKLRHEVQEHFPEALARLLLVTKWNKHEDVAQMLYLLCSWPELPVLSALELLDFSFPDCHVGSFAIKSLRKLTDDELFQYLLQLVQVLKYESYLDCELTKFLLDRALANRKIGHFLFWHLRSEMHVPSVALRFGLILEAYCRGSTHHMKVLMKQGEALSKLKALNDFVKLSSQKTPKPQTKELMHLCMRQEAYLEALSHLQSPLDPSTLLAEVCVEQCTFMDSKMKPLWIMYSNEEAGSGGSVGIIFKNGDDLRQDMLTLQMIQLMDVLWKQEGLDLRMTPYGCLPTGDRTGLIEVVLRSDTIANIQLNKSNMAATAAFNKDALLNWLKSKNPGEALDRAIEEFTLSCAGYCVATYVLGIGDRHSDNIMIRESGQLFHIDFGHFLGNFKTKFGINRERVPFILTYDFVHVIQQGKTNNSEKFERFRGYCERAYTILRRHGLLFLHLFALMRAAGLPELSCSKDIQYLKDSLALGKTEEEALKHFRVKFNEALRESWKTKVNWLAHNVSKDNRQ
Assay: Inhibition of PI3Kdelta expressed in cells co-expressing N-terminal His-tagged human p85a using L-alpha-phosphatidylinositol substrate by TLC based phosphor imaging
Format: cell-based
quantityKind: IC50 (µM)

> print(dat)
                                 smilesdata  valueunits  qualifyingsign  testresult
1  COc1ccc(-c2nnc(SCc3cccc([N+](=O)[O-])c3)o2)c(O)c1          µM               =        29.7
2  Cc1ccc(-c2nnc(SCc3ccc([N+](=O)[O-])cc3)o2)c(O)c1          µM               =        25.6
3      COc1cccc(CSc2nnc(-c3ccc(C)cc3O)o2)c1          µM               >         100
4   COc1ccc(-c2nnc(SCc3cccc(Cl)c3)o2)c(O)c1          µM               >         100
5    COc1ccc(-c2nnc(SCc3ccc(F)cc3)o2)c(O)c1          µM               =        11.5
6     O=c1cc(N2CCOCC2)oc2c(-c3ccccc3)cccc12          µM               =        0.57
7      COc1ccc(-c2nnc(SCc3ccccc3F)o2)c(O)c1          µM               =          19

###

biological target: Phosphatidylinositol 4,5-bisphosphate 3-kinase catalytic subunit beta isoform (Homo sapiens, UniProt P42338); test: Inhibition of human wild type PI3Kbeta expressed in Sf21 cells co-expressing N-terminal His-tagged human p85a using L-alpha-phosphatidylinositol substrate by TLC based phosphor imaging
Sequence (P42338 whole entry, canonical isoform): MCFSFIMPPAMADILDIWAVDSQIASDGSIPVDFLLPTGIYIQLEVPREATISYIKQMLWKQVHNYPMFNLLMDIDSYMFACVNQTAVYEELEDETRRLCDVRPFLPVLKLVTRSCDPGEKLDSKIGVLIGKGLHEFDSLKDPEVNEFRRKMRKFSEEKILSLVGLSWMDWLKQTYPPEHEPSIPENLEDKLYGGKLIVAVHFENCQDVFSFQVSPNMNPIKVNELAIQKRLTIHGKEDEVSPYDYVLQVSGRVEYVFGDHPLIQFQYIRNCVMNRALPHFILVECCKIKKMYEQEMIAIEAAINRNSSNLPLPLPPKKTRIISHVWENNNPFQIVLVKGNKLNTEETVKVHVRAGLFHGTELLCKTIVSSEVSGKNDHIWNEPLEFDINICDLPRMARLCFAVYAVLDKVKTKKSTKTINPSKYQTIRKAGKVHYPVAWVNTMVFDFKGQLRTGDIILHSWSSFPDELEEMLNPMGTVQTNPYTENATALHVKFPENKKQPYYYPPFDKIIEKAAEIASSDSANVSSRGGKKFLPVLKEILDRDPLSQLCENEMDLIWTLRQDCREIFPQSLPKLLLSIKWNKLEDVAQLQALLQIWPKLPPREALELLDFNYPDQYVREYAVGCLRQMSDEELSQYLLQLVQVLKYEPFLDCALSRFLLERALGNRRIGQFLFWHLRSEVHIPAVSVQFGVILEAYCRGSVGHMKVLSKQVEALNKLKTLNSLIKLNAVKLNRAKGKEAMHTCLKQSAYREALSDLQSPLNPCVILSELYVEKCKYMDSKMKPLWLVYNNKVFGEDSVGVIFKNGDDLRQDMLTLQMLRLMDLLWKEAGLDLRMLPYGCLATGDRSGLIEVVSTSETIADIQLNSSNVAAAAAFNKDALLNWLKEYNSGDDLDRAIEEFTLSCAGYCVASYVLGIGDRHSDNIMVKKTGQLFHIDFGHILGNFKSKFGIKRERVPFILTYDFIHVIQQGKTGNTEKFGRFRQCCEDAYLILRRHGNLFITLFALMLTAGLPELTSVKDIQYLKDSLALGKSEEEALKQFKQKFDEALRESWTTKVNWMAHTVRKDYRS
pIC50: −log10 of the molar value.
quantityKind: pIC50

> print(dat)
                                 smilesdata  qualifyingsign  testresult
1    COc1ccc(-c2nnc(SCc3ccc(F)cc3)o2)c(O)c1               <        4.00
2  COc1ccc(-c2nnc(SCc3cccc([N+](=O)[O-])c3)o2)c(O)c1               <        4.00
3  Cc1ccc(-c2nnc(SCc3ccc([N+](=O)[O-])cc3)o2)c(O)c1               <        4.00
4      COc1cccc(CSc2nnc(-c3ccc(C)cc3O)o2)c1               =        4.87
5   COc1ccc(-c2nnc(SCc3cccc(Cl)c3)o2)c(O)c1               =        4.36
6      COc1ccc(-c2nnc(SCc3ccccc3F)o2)c(O)c1               =        4.29

###

assay: Immunosuppressive activity in BALB/c mouse lymph node cells assessed as inhibition of concanavalin A-stimulated cell proliferation at 1 uM administered 24 hrs post concanavalin A stimulation and measured 72 hrs after compound dosing by MTT assay; format: functional
Class YES: inhibition (INH) at least 9%. Class NO: inhibition (INH) below 9%.

smilesData	labelValue
COc1ccc(-c2nnc(SCc3ccc([N+](=O)[O-])cc3)o2)c(O)c1	YES
COc1cccc(CSc2nnc(-c3ccc(OC)cc3O)o2)c1	YES
Cc1ccc(-c2nnc(SCc3ccc(F)cc3)o2)c(O)c1	NO
COc1ccc(-c2nnc(SCc3cccc(C)c3)o2)c(O)c1	YES
Cc1ccc(-c2nnc(SCc3ccc(Cl)cc3)o2)c(O)c1	YES
C/C=C/C[C@@H](C)[C@@H](O)[C@H]1C(=O)N[C@@H](CC)C(=O)N(C)CC(=O)N(C)[C@@H](CC(C)C)C(=O)N[C@@H](C(C)C)C(=O)N(C)[C@@H](CC(C)C)C(=O)N[C@@H](C)C(=O)N[C@H](C)C(=O)N(C)[C@@H](CC(C)C)C(=O)N(C)[C@@H](CC(C)C)C(=O)N(C)[C@@H](C(C)C)C(=O)N1C	YES
COc1ccc(-c2nnc(SCc3cccc(Cl)c3)o2)c(O)c1	YES
Cc1ccc(C(=O)O)c(O)c1	NO
Cc1cccc(CSc2nnc(-c3ccc(C)cc3O)o2)c1	NO

###

experiment: Immunosuppressive activity in BALB/c mouse lymph node cells assessed as inhibition of concanavalin A-stimulated cell proliferation at 1 uM administered 24 hrs post concanavalin A stimulation and measured 72 hrs after compound dosing by MTT assay; format: functional
Catalogue of inhibition (INH) values
quantityKind: inhibition (INH) (%)

> print(dat)
                                  smilesdata  valueunits  testresult
 1      Cc1ccc(-c2nnc(SCc3ccccc3Cl)o2)c(O)c1           %        8.99
 2  Cc1ccc(-c2nnc(SCc3ccc([N+](=O)[O-])cc3)o2)c(O)c1           %       38.76
 3      COc1ccc(CSc2nnc(-c3ccc(C)cc3O)o2)cc1           %       13.67
 4      COc1ccc(-c2nnc(SCc3ccccc3F)o2)c(O)c1           %       34.35
 5     COc1ccc(CSc2nnc(-c3ccc(OC)cc3O)o2)cc1           %       11.33
 6      COc1cccc(CSc2nnc(-c3ccc(C)cc3O)o2)c1           %       20.59
 7  COc1ccc(-c2nnc(SCc3ccccc3[N+](=O)[O-])o2)c(O)c1           %        3.96
 8    COc1ccc(-c2nnc(SCc3ccc(F)cc3)o2)c(O)c1           %       29.32
 9    Cc1ccc(-c2nnc(SCc3cccc(Cl)c3)o2)c(O)c1           %       -0.72
10    COc1ccc(-c2nnc(SCc3ccc(C)cc3)o2)c(O)c1           %        6.29
11  Cc1ccc(-c2nnc(SCc3cccc([N+](=O)[O-])c3)o2)c(O)c1           %       -4.36
12     COc1ccc(-c2nnc(SCc3ccccc3Cl)o2)c(O)c1           %       17.36
13  COc1ccc(-c2nnc(SCc3cccc([N+](=O)[O-])c3)o2)c(O)c1           %       19.33
14  Cc1ccc(-c2nnc(SCc3ccccc3[N+](=O)[O-])o2)c(O)c1           %       11.42
15                     COc1ccc(C(=O)O)c(O)c1           %        7.34
16       Cc1ccc(-c2nnc(SCc3ccccc3F)o2)c(O)c1           %       -6.92
17       Cc1ccc(CSc2nnc(-c3ccc(C)cc3O)o2)cc1           %       11.42
18   COc1ccc(-c2nnc(SCc3ccc(Cl)cc3)o2)c(O)c1           %       11.96
19       COc1ccc(-c2nnc(SCc3ccccc3)o2)c(O)c1           %         4.5
